Target: Gal(b1-4)GlcNAc(b1-3)Gal(b1-4)GlcNAc(b1-2)[Gal(b1-4)GlcNAc(b1-3)Gal(b1-4)GlcNAc(b1-6)]Man(a1-6)[Gal(b1-4)GlcNAc(b1-3)Gal(b1-4)GlcNAc(b1-2)Man(a1-3)]Man(b1-4)GlcNAc(b1-4)[Fuc(a1-6)]GlcNAc
Assay: glycan array binding signal (z-score within array); higher = stronger binding
Conditions: glycan notation: IUPAC condensed, linker removed
Many of the other results were omitted from the sample, so the strongest signals are more common in it than they were.
metric: glycan array binding signal (z-score)
One number for each entry.

State, in one line, measured glycan array binding signal (z-score) of LF82 (Escherichia coli) (protein) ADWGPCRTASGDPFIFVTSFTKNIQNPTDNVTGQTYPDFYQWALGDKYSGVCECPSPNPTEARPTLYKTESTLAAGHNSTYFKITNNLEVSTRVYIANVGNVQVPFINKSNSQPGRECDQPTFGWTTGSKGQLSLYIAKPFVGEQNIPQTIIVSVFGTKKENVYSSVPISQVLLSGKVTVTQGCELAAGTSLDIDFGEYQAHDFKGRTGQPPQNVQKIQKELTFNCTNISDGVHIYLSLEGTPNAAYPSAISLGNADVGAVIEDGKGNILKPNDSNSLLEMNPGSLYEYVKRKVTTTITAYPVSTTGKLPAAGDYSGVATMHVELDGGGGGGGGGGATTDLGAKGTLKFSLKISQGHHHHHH
2.68
